From: patent US20090318493A1

Target: hSERT transporter (Homo sapiens)
Construct: expressed in transfected cells; membranes prepared
Sequence (P31645 whole entry): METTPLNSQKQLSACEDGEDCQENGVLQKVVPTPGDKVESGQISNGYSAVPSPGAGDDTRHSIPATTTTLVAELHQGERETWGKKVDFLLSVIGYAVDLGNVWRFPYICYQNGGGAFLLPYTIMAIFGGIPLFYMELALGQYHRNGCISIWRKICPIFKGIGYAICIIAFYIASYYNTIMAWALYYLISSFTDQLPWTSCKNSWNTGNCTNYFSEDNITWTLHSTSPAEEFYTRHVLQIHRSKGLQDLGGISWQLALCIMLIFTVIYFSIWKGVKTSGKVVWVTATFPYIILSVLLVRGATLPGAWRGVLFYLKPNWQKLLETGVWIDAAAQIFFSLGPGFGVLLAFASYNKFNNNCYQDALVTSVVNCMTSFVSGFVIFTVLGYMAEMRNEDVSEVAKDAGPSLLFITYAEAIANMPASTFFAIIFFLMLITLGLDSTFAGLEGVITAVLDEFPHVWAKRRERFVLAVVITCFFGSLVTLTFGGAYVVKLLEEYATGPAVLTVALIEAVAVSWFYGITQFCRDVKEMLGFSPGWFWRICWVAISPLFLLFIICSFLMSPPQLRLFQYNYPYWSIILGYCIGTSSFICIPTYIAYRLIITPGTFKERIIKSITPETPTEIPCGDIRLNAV
Assay: Human serotonin transporter (hSERT) scintillation proximity assay, competition with [3H]-Citalopram
Type: binding
Details: Table 1; read-out: pIC50 SERT (converted)
IC50 under 7 nM gets YES, anything at or over 7 nM gets NO.

Compound | Cat
CC1(CC2(C(=O)c3ccc(Cl)c(Cl)c3)CCNCC2)CC1 [Compound 34] | YES
CCCC1(C(=O)c2ccc(Cl)c(OCC3CCOCC3)c2)CCNC1 (stereo not drawn) [Compound 13] | NO
CCCC1(C(=O)c2ccc(Cl)c(-c3cccnc3)c2)CCCNC1 (stereo not drawn) [Compound 55] | NO
Cc1ccc(C(=O)C2(CC(C)C)CCNCC2)cc1Cl [Compound 35] | YES
COC(C)(C)CC1(C(=O)c2ccc(Cl)c(Cl)c2)CCNCC1 [Compound 37] | YES
CC(C)CC[C@]1(C(=O)c2cc(F)c(N)c(Cl)c2)CCNC1 [Compound 22] | NO
CC(C)CC1(C(=O)c2ccc(Cl)c(Oc3ccccc3)c2)CCNCC1 [Compound 45] | YES
O=C(c1ccc(Cl)c(Cl)c1)C1(CC2CCCC2)CCNCC1 [Compound 39] | YES

====

Biological target: hDAT (Homo sapiens)
Construct: expressed in transfected cells; plated whole cells
Sequence (Q01959 whole entry): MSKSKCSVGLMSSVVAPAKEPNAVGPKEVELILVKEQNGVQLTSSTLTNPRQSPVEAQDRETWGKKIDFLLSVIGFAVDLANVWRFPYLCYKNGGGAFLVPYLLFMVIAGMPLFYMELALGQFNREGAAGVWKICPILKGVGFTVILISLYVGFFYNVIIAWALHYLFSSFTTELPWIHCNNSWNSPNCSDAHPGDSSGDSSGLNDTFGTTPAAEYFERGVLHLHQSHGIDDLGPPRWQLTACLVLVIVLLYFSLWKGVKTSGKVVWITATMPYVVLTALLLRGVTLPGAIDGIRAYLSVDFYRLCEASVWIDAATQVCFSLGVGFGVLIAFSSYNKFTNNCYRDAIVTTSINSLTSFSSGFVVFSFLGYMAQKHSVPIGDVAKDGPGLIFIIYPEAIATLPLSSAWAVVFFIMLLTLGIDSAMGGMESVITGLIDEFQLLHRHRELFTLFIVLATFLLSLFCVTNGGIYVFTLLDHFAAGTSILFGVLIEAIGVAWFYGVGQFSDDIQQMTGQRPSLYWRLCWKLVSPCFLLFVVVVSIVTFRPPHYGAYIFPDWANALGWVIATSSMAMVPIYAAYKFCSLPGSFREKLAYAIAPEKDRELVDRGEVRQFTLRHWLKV
Experiment: Human dopamine transporter scintillation proximity assay, competition with [3H]-Vanoxerine
Type: binding
Settings: Table 1; read-out: pIC50 DAT (converted)
IC50 under 1 µM gets Y, anything at or over 1 µM gets N.

Molecule | Target | Cat
CC(C)(C)CCC1(C(=O)c2cc(Cl)c(N)c(C(F)(F)F)c2)CCNC1 (stereo not drawn) | hDAT (Homo sapiens) | Y
CCCC1(C(=O)c2ccc(-n3ccnc3)c(Br)c2)CCCNC1 (stereo not drawn) | hDAT (Homo sapiens) | N
CC(C)(C)CCC1(C(=O)c2ccc(Cl)c(Oc3ccc(F)cc3)c2)CCNC1 (stereo not drawn) | hDAT (Homo sapiens) | N
CC1(CC2(C(=O)c3ccc(Cl)c(Cl)c3)CCNCC2)CC1 | hDAT (Homo sapiens) | Y
CCCC1(C(=O)c2ccc(Cl)cc2Oc2ccccc2)CCNCC1 | hDAT (Homo sapiens) | N
COC(C)(C)CC1(C(=O)c2ccc(Cl)c(Cl)c2)CCNCC1 | hDAT (Homo sapiens) | Y
CC(C)C[C@@]1(C(=O)c2ccc(Cl)c(Cl)c2N)CCNC1 | hDAT (Homo sapiens) | Y
CCCC1(C(=O)c2ccc(Cl)c(-n3ccnc3)c2)CCCNC1 (stereo not drawn) | hDAT (Homo sapiens) | N
CCCC1(C(=O)c2ccc(Cl)c(S(=O)(=O)c3ccccc3)c2)CCNC1 (stereo not drawn) | hDAT (Homo sapiens) | Y

====

Target: hDAT (Homo sapiens)
Construct: expressed in transfected cells; plated whole cells
Assay: Human dopamine transporter scintillation proximity assay, competition with [3H]-Vanoxerine
Assay type: binding
Settings: Table 1; read-out: pIC50 DAT (converted)
IC50 under 100 nM gets 1.0, anything at or over 100 nM gets 0.0.

Compound | Cat
CC(C)CCC1(C(=O)c2ccc(Cl)c(Oc3ccccc3)c2)CCNC1 (stereo not drawn) | 0.0
CC(C)C[C@@]1(C(=O)c2ccc(N)c(Cl)c2)CCNC1 | 0.0
CC(C)(C)CC[C@]1(C(=O)c2ccc(Cl)c(Cl)c2)CCCNC1 | 0.0
CC(C)CC1(C(=O)c2ccc(Cl)c(Oc3ccccc3)c2)CCNCC1 | 1.0
O=C(c1ccccc1)C1(Cc2ccc(Cl)c(Cl)c2)CCNCC1 | 0.0
CCCC1(C(=O)c2ccc(Cl)c(OCCC(C)(C)C)c2)CCNC1 (stereo not drawn) | 0.0
CCCC1(C(=O)c2ccc(Cl)c(Oc3ccc(C(F)(F)F)cc3)c2)CCNC1 (stereo not drawn) | 0.0
CC(C)(C)CCOc1cc(C(=O)C2(CCC(C)(C)C)CCNC2)ccc1Cl (stereo not drawn) | 0.0
CCCC1(C(=O)c2ccc(Cl)c(N(C)c3ccccc3)c2)CCNCC1 | 0.0
CCCC1(C(=O)c2ccc(Cl)c(-c3ccn[nH]3)c2)CCCNC1 (stereo not drawn) | 0.0
Cc1ccc(C(=O)C2(CC(C)C)CCNCC2)cc1Cl | 1.0
CCCC1(C(=O)c2ccc(Cl)c(Sc3ccccc3)c2)CCNC1 (stereo not drawn) | 0.0
CCCC1(C(=O)c2ccc(Cl)c(Oc3ccccc3)c2)CCNCC1 | 1.0
Cc1ccc(C(=O)C2(CCC(C)C)CCNCC2)cc1Cl | 1.0
O=C(c1ccc(Cl)c(Cl)c1)C1(CC2CCCC2)CCNCC1 | 1.0
CC(C)(C)CCC1(C(=O)c2ccc(Cl)c(Oc3ccccc3F)c2)CCNC1 (stereo not drawn) | 0.0
CC(C)(C)CCC1(C(=O)c2ccc(Cl)c(OCc3ccccc3)c2)CCNC1 (stereo not drawn) | 0.0
O=C(c1ccc(Cl)c(Cl)c1)C1(CC2CCOCC2)CCNCC1 | 1.0

====

Target: hNET transporter (Homo sapiens, UniProt P23975)
Construct: expressed in transfected cells; membranes prepared
Sequence (P23975 whole entry): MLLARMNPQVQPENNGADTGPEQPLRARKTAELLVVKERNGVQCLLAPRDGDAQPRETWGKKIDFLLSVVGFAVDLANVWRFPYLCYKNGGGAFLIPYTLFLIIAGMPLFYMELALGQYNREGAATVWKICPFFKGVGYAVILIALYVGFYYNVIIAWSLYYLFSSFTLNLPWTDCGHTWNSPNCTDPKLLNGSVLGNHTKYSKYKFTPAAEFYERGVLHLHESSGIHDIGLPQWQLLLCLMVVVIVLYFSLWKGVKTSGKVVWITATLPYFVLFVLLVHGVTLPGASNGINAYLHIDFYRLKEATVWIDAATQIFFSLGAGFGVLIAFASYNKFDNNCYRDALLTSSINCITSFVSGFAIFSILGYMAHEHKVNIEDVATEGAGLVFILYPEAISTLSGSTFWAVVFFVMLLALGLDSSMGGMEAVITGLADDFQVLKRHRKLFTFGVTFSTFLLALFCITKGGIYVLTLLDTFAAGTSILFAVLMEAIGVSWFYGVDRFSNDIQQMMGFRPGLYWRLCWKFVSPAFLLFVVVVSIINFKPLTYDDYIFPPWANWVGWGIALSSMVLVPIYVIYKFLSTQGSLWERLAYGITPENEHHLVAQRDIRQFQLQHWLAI
Assay: Human norepinephrine transporter (hNET) scintillation proximity assay, competition with [3H]-Nisoxetine
Type: binding
Details: Table 1; read-out: pIC50 NET (converted)
Recorded measurements of IC50, one per entry

Compound | IC50
CC(C)(C)CCC1(C(=O)c2ccc(Cl)c(Oc3ccc(F)cc3)c2)CCNC1 (stereo not drawn) | 77.6 nM
CC1(CC2(C(=O)c3ccc(Cl)c(Cl)c3)CCNCC2)CC1 | 66.1 nM
CCCC1(C(=O)c2ccc(Cl)c(Oc3ccccc3)c2)CCNC1 (stereo in doubt) [Compound 29] | 2.63 nM
CCCC1(C(=O)c2ccc(Cl)c(S(=O)(=O)c3ccccc3)c2)CCNC1 (stereo not drawn) | 4900 nM
CC(C)CC1(C(=O)c2ccc(Cl)c(Oc3ccccc3)c2)CCNC1 (stereo not drawn) | 1.91 nM
O=C(c1ccc(Cl)c(Cl)c1)C1(CC2CCOCC2)CCNCC1 | 209 nM
CC(C)(C)CCC1(C(=O)c2ccc(Cl)c(Cl)c2)CCCNC1 (stereo not drawn) | 32.4 nM
CCCC1(C(=O)c2ccc(Br)c(Oc3ccccc3)c2)CCNC1 (stereo not drawn) | 7.94 nM
COC(C)(C)CC1(C(=O)c2ccc(Cl)c(Cl)c2)CCNCC1 | 105 nM
CC(C)CC1(C(=O)c2ccc(Cl)c(Oc3ccccc3)c2)CCNCC1 | 2.57 nM
CCCC1(C(=O)c2ccc3ccccc3c2)CCNCC1 | 15.8 nM
CC(C)C[C@]1(C(=O)c2ccc(N)c(Cl)c2)CCNC1 | 3.02 nM
Cc1cc(C(=O)C2(CCC(C)(C)C)CCNC2)ccc1Cl (stereo not drawn) | 5.5 nM
CC(C)(C)CC[C@@]1(C(=O)c2cc(F)c(N)c(Cl)c2)CCNC1 | 25.1 nM
CC[C@]1(C(=O)c2ccc(Cl)c(Cl)c2)CC[C@@H]2CC[C@H]1N2 | 5130 nM
CCCC1(C(=O)c2ccc(Cl)c(OCc3ccccc3)c2)CCNC1 (stereo not drawn) | 1700 nM
CC(C)CC[C@@]1(C(=O)c2cc(F)c(N)c(Cl)c2)CCNC1 | 1.91 nM
CC(C)(C)CCC1(C(=O)c2ccc(Cl)c(Oc3ccccc3F)c2)CCNC1 (stereo not drawn) | 45.7 nM
CC(C)CC1(C(=O)c2cc(F)c(N)c(Cl)c2)CCNC1 (stereo in doubt) | 20 nM
Cc1ccc(C(=O)C2(CCC(C)C)CCNCC2)cc1Cl | 135 nM
CCCC1(C(=O)c2ccc(Cl)c(Oc3ccc(C(F)(F)F)cc3)c2)CCNC1 (stereo not drawn) | 200 nM
CCC1(C(=O)c2ccc(Cl)c(Oc3ccccc3)c2)CCNC1 (stereo not drawn) | 26.3 nM
CCCC1(C(=O)c2ccc(Cl)c(Oc3ccccc3)c2)CCNC1 (stereo in doubt) [Compound 30] | 24 nM
CCCC1(C(=O)c2ccc(Cl)c(Oc3ccc(F)cc3)c2)CCNC1 (stereo not drawn) | 15.1 nM
CCCC1(C(=O)c2ccc(Cl)c(Oc3ccccc3F)c2)CCNC1 (stereo not drawn) | 24 nM
CC[C@@]1(C(=O)c2ccc(Cl)c(Cl)c2)CC[C@@H]2CC[C@H]1N2 | 1150 nM
CC(C)C[C@@]1(C(=O)c2cc(F)c(N)c(Cl)c2)CCNC1 | 3.98 nM
O=C(c1ccc(Cl)c(Cl)c1)C1(CC2CCCC2)CCNCC1 | 41.7 nM
CCCC[C@@]1(C(=O)c2ccc(Cl)c(Cl)c2)CC[C@@H]2CC[C@H]1N2C (mixture of isomers) | 501 nM
O=C(c1ccccc1)C1(Cc2ccc(Cl)c(Cl)c2)CCNCC1 | 1510 nM
CCCC[C@]1(C(=O)c2ccc(Cl)c(Cl)c2N)CC2CC[C@H]1N2 | 182 nM
CC(C)C[C@@]1(C(=O)c2ccc(Cl)c(Cl)c2)CC[C@@H]2CC[C@H]1N2 | 200 nM
Cc1ccc(C(=O)C2(CC(C)C)CCNCC2)cc1Cl | 45.7 nM
CNc1ccc(C(=O)C2(CC(C)C)CCNCC2)cc1Cl | 51.3 nM
CCCC1(C(=O)c2ccc(Cl)c(OCCC(C)(C)C)c2)CCNC1 (stereo not drawn) | 631 nM
CC(C)(C)CCOc1cc(C(=O)C2(CCC(C)(C)C)CCNC2)ccc1Cl (stereo not drawn) | 912 nM
